# TEST_TARGET: T1, mouse tissue factor pathway inhibitor (TFPI) (mouse, UniProt O54819 29-289, limits assumed)
# T1 construct: bought; also called mTFPI; murine TFPI
# T1 sequence (looked up): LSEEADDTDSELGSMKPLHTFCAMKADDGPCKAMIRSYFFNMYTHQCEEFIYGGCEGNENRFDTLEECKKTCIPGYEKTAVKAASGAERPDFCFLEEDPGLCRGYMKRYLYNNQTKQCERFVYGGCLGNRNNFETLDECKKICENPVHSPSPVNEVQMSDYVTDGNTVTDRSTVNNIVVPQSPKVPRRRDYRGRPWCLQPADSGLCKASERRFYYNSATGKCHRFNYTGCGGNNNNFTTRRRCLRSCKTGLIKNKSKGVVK
# MEASUREMENT_DESCRIPTION: competitive ELISA
QUANTITY_MEASURED: variant/HC_D62R

4B7 HC N32D+D62R+H107M+Y112D/LC F31M+D33R+N35I (Fab, V domains shown) VH: QVQLQQSGPGLVKPSQTLSLTCAISGDSVSSDSAAWSWIRQSPGRGLEWLGIIYKRSKWYNRYAVSVKSRITINPDTSKNQFSLQLNSVTPEDTAVYYCARWHSDKMWGFDDWGQGTLVTVSS VL: DIVMTQSPLSLPVTPGEPASISCRSSQSLVMSRGITYLNWYLQKPGQSPQLLIYKGSNRASGVPDRFSGSGSGTDFTLKISRVEAEDVGVYYCQQYDSYPLTFGQGTKVEIKR    23 ratio
4B7 HC N32D+D62R+H107M+Y112D/LC S32R+N35T+D97T (Fab, V domains shown) VH: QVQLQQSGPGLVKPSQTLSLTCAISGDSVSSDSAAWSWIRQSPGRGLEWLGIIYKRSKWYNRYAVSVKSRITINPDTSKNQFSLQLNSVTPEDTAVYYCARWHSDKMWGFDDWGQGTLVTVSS VL: DIVMTQSPLSLPVTPGEPASISCRSSQSLVFRDGTTYLNWYLQKPGQSPQLLIYKGSNRASGVPDRFSGSGSGTDFTLKISRVEAEDVGVYYCQQYTSYPLTFGQGTKVEIKR    15.8 ratio
4B7 HC N32D+D62R+H107M+Y112D/LC F31I+N35I (Fab, V domains shown) VH: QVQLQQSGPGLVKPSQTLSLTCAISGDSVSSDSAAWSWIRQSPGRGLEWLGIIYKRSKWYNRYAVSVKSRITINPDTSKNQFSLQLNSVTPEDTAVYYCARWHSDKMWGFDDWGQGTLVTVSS VL: DIVMTQSPLSLPVTPGEPASISCRSSQSLVISDGITYLNWYLQKPGQSPQLLIYKGSNRASGVPDRFSGSGSGTDFTLKISRVEAEDVGVYYCQQYDSYPLTFGQGTKVEIKR    30 ratio

Origin of measurements: patent USRE47150
